System: Plasmodium falciparum
Experiment: Calibr Malaria Delayed Death Assay SOP
Format: functional, organism-based
Design: scale not given: in the data most compounds retested in dose-response had high values
Condition context: concentration 4.99e-06 (unit not given; other assays of the set use mol/L)
Out of some 38,000 compounds screened, about 1,200 (3.2%) showed an effect of 50% or more. The median lay at about -58%. For the sample, strong results were picked, then their nearest neighbours and some compounds at random.
Label Criterion met when Percent Effect is at or above -80%; anything below gets Criterion not met.

*Q* # bool: Percent Effect of "CNC(=O)c1cn(C)c(-c2nc3cc(NC(C)=O)ccc3n2C)c1OC" >= -80%
*A* Criterion met

*Q* # bool: Percent Effect of COCC1CN(CCOc2ccc(Cl)cc2)Cc2c1cnn2C.O=C(O)C(F)(F)F.O=C(O)C(F)(F)F (stereo not drawn) >= -80%
*A* Criterion met

*Q* # bool: Percent Effect of O=C(NCC(c1cccs1)N1CCOCC1)c1ccc(F)cc1Cl (stereo not drawn) >= -80%
*A* Criterion met

*Q* # bool: Percent Effect of "NC(=O)CS(=O)(=O)Cc1csc(-c2ccc(F)cc2)n1" >= -80%
*A* Criterion not met

*Q* # bool: Percent Effect of NC1CCCc2nc(-c3ccccc3)ncc21 (stereo not drawn) >= -80%
*A* Criterion not met

*Q* # bool: Percent Effect of "CN1CCN(Cc2ccccc2CNC(=O)c2ccc(Cl)cc2F)CC1" >= -80%
*A* Criterion met

*Q* # bool: Percent Effect of CC(C)c1ncc(C(=O)N2CCOCC2CC(=O)c2ccco2)s1 (stereo not drawn) >= -80%
*A* Criterion met

---

Test system: Plasmodium falciparum
Experiment: Calibr Malaria Delayed Death Assay SOP
Type: functional, organism-based
Parameters: scale not given: in the data most compounds retested in dose-response had high values
Condition context: concentration 4.99e-06 (unit not given; other assays of the set use mol/L)
Hit rate of the full screen: of about 38,000 compounds, about 1,200 (3.2%) showed an effect of 50% or more. The median lay at about -58%. The list comes from a sample in which strong results are over-represented; it also holds close analogues and randomly drawn compounds.
Exercise: state measured Percent Effect for each of the compounds provided.
Quote the value and follow it with the unit of measurement.

*Q* Recall and state the measured Percent Effect for "Cc1ccc(C(=O)N2CC[C@]3(C[C@@H](OCc4ccccn4)CO3)C2)nc1.O=C(O)C(F)(F)F.O=C(O)C(F)(F)F" .
*A* -9.931%

*Q* Recall and state the measured Percent Effect for Cc1ccc(S(=O)(=O)N2CCCCC(N3CCN(C)CC3)C2)cc1F (stereo not given) .
*A* 37.26%

*Q* Recall and state the measured Percent Effect for "CN(C)CCN(C)S(=O)(=O)Cc1ccc(Br)cc1" .
*A* 62.66%

*Q* Recall and state the measured Percent Effect for "COC[C@@H]1CCC[C@@]12CN(C(=O)C1CCOCC1)CCO2" .
*A* -66.15%

*Q* Recall and state the measured Percent Effect for "O=C(O)C(F)(F)F.c1ccc(NC[C@@H]2CCC[C@@H]3CN(c4ncccn4)C[C@@H]32)nc1" .
*A* 71.6%

*Q* Recall and state the measured Percent Effect for "Cc1cccc(CNC(=O)Nc2cc(C(F)(F)F)c[nH]c2=O)n1" .
*A* -120.3%

*Q* Recall and state the measured Percent Effect for "Cc1cc2nc(SCC(=O)N3CCOCC3)n(CC(C)C)c(=O)c2[nH]1" .
*A* -82.87%

*Q* Recall and state the measured Percent Effect for "Cc1nc2c(N3CCN(Cc4ccccc4)CC3)nc(N)nc2n1C" .
*A* -81.58%

*Q* Recall and state the measured Percent Effect for "Cc1cccc(C)c1OC1CN(C(=O)C2CCN(C(=O)N(C)C)CC2)C1" .
*A* -10.34%

*Q* Recall and state the measured Percent Effect for "CCC(CC)CN1CCN(CC(=O)Nc2cccc3nsnc23)CC1" .
*A* -38.36%

*Q* Recall and state the measured Percent Effect for "Fc1cccc(CN2CCN(Cc3cscn3)CC2)c1" .
*A* -54.95%

*Q* Recall and state the measured Percent Effect for COc1ccc(N2CCN(Cc3noc(CC(C)C)n3)C(C)C2=O)cc1 (stereo not given) .
*A* -89.75%

*Q* Recall and state the measured Percent Effect for "Cc1ccc(S(=O)(=O)N2CCC(N3CCCCC3)CC2)cc1C" .
*A* 64.64%

*Q* Recall and state the measured Percent Effect for COc1ccc(F)cc1C(C)NC(=O)Cn1ccc(=O)n(C)c1=O (stereo not given) .
*A* -164.7%

*Q* Recall and state the measured Percent Effect for "CCc1nc(CN(C)CC(=O)OC(C)(C)C)cs1" .
*A* -47.19%

*Q* Recall and state the measured Percent Effect for "COCCN1C[C@H]2CCC[C@@H](CNc3ncccn3)[C@H]2C1.O=C(O)C(F)(F)F.O=C(O)C(F)(F)F" .
*A* 19.85%

*Q* Recall and state the measured Percent Effect for "COc1ccccc1C1(C(=O)NCCN2CCOCC2)CCOCC1" .
*A* -173.3%

*Q* Recall and state the measured Percent Effect for "CCCN(C(=O)c1cccnc1)c1nc2c(s1)CCc1c-2cnn1C" .
*A* 81.54%

*Q* Recall and state the measured Percent Effect for "CNC(=O)CNC(=O)Nc1cc(-c2ccccc2)ns1" .
*A* -97.73%

*Q* Recall and state the measured Percent Effect for CCc1nn(C)c(Cl)c1CN1CCCC2(CC1)CN(C)C(=O)O2 (stereo not given) .
*A* -46.66%

*Q* Recall and state the measured Percent Effect for "CCCNS(=O)(=O)Cc1ccc(Br)cc1" .
*A* -18.14%

*Q* Recall and state the measured Percent Effect for Cc1cccc(S(=O)(=O)N2Cc3nccn3CC(CN(C)C)C2)c1 (stereo not given) .
*A* 1.767%

*Q* Recall and state the measured Percent Effect for "CCc1nc(CN2CCCN(C(=O)CCOC(C)C)CC2)cs1" .
*A* -60.5%

*Q* Recall and state the measured Percent Effect for "Cc1cccc(CN2C[C@@H]3CCCO[C@@H]3[C@H](Nc3ccccn3)C2)n1" .
*A* 55.52%

*Q* Recall and state the measured Percent Effect for "Cc1ccc(S(=O)(=O)N2CCC(S(=O)(=O)c3nncn3C)CC2)cc1C" .
*A* -38.79%

*Q* Recall and state the measured Percent Effect for "Fc1ccc(CC2CCN(Cc3nccs3)CC2)cc1" .
*A* 0.00383%

*Q* Recall and state the measured Percent Effect for "Cc1cc(C)c2[nH]c(C(=O)NCCN3CCCC3=O)c(C)c2c1" .
*A* -119.1%

*Q* Recall and state the measured Percent Effect for CC(O)CCN(C)S(=O)(=O)Cc1ccc(Br)cc1 (stereo not given) .
*A* -27.23%

*Q* Recall and state the measured Percent Effect for "Cc1ccc(CN2CCC3(CC2)CCN(Cc2ccco2)CC3)cc1.O=C(O)C(F)(F)F.O=C(O)C(F)(F)F" .
*A* 91.42%

*Q* Recall and state the measured Percent Effect for "O=C(Cn1cc(C2CC2)nn1)N(Cc1ccco1)Cc1cccs1" .
*A* -76.11%

*Q* Recall and state the measured Percent Effect for "Cc1ccc(S(=O)(=O)N2CCC(S(C)(=O)=O)CC2)cc1C" .
*A* -5.803%

*Q* Recall and state the measured Percent Effect for "CCN(CCN1CCOCC1)C(=O)c1cccnc1" .
*A* -63.54%

*Q* Recall and state the measured Percent Effect for "Cc1cnn(CCNCc2ccc(OCc3cscn3)cc2)c1" .
*A* -21.22%

*Q* Recall and state the measured Percent Effect for "COCCn1ccnc1C1CCN(C(=O)CSc2nnc(C)s2)CC1" .
*A* -110.9%

*Q* Recall and state the measured Percent Effect for "NC(=O)c1nc(-c2cccc(Cl)c2)oc1N" .
*A* -143.3%

*Q* Recall and state the measured Percent Effect for Cc1cc(S(=O)(=O)N2CCCN3CCCC3C2)ccc1F (stereo not given) .
*A* 67.89%

*Q* Recall and state the measured Percent Effect for O=S(=O)(N1CCCC1)N(Cc1ccccc1)CC1CCCO1 (stereo not given) .
*A* -64.47%

*Q* Recall and state the measured Percent Effect for "Cc1nc(CO[C@H]2CN(Cc3cccs3)[C@@H]3COC[C@H]23)cs1.O=C(O)C(F)(F)F.O=C(O)C(F)(F)F" .
*A* -73.25%

*Q* Recall and state the measured Percent Effect for "O=C(NCCOc1ccc(Cl)cn1)NCCc1ccccn1" .
*A* -11.42%

*Q* Recall and state the measured Percent Effect for "CNC(=O)COC(=O)c1ccn(-c2ccc(Cl)c(Cl)c2)n1" .
*A* -33.36%
